Biological target: T1, FZD4 cysteine-rich domain (CRD), MYC-tagged and GPI-anchored on CHO cells (human, UniProt Q9ULV1 42-167, GPI anchor)
T1 construct: also called FZD4 CRD; CHO-myc-FZDGPI; not shown: MYC tag and GPI anchor signal
T1 sequence: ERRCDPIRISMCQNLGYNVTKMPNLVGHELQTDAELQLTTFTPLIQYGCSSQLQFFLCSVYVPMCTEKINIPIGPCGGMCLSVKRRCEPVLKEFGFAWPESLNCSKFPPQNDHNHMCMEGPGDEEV
Assay: immunofluorescence, CHO-CRD cells
Reported Property: binding result

Binder | Reported Property | Measured
Fab-2925 (Fab, V domains shown, Fab; also called Fv-2925) VH: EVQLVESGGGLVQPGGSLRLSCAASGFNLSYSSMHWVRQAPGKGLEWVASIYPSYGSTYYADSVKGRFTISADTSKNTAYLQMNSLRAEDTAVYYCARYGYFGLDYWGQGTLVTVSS VL: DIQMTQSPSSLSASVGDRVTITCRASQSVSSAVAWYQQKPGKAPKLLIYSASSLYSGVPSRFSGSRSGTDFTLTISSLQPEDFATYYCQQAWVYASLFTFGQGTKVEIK | binding result | no binding
Fab-2900 (Fab, V domains shown, Fab; also called Fv-2900) VH: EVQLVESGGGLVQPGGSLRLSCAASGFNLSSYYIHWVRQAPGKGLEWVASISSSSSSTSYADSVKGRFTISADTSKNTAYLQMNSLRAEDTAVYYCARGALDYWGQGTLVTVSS VL: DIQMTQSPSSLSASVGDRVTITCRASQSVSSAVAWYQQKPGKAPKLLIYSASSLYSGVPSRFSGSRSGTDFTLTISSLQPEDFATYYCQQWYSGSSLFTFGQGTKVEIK | binding result | no binding
Fab-2936 (Fab, V domains shown, Fab; also called Fv-2936) VH: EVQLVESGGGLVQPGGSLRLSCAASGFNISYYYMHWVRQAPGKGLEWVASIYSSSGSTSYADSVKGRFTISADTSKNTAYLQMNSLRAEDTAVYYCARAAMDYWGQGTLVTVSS VL: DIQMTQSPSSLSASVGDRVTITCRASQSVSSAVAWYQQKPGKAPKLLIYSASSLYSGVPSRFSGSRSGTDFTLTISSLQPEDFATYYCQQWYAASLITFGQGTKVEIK | binding result | no binding
